Test: in vivo
Conditions: BALB/c, mouse
ASSAY_METRIC: bioavailability (%)
Form entry: value (%) — number only.

Q: Fill in: bioavailability of "CC(=O)c1sc(NC(=O)N[C@@H]2CN(C(C)=O)CC[C@H]2CN2CCC[C@@H](Cc3ccc(F)cc3)C2)nc1C" is ___
A: 25

---

Test: in vivo
Conditions: chimpanzee
ASSAY_METRIC: bioavailability (%)
Field: numeric (%). Do not append units.

Q: Quick one: bioavailability for "CC(=O)c1sc(NC(=O)N[C@@H]2CN(C(C)=O)CC[C@H]2CN2CCC[C@@H](Cc3ccc(F)cc3)C2)nc1C" ?
A: 7

---

Experiment: in vivo
Conditions: cynomolgus monkey
ASSAY_METRIC: clearance
# output: numeric value plus its unit

Q: # query: clearance of entry "CC(=O)c1sc(NC(=O)N[C@@H]2CN(C(C)=O)CC[C@H]2CN2CCC[C@@H](Cc3ccc(F)cc3)C2)nc1C"
A: 14.5 mL/min/kg

---

Assay: in vivo
Conditions: chimpanzee
ASSAY_METRIC: half-life (min)
Your answer is read as min, so omit the unit and give the number.

Q: Record request: half-life value, item "CC(=O)c1sc(NC(=O)N[C@@H]2CN(C(C)=O)CC[C@H]2CN2CCC[C@@H](Cc3ccc(F)cc3)C2)nc1C"
A: 270

---

Experiment: in vitro
Settings: human, Caco-2
ASSAY_METRIC: Papp
Returns: string containing the number followed by the unit.

Q: Any idea what Papp was measured for "CC(=O)c1sc(NC(=O)N[C@@H]2CN(C(C)=O)CC[C@H]2CN2CCC[C@@H](Cc3ccc(F)cc3)C2)nc1C" ?
A: 2.8 ×10⁻⁶ cm/s

---

Assay: in vivo
Details: cynomolgus monkey
ASSAY_METRIC: half-life (h)
Number in h, nothing else.

Q: Look up half-life for this compound: "CC(=O)c1sc(NC(=O)N[C@@H]2CN(C(C)=O)CC[C@H]2CN2CCC[C@@H](Cc3ccc(F)cc3)C2)nc1C"
A: 5.5

---

Test: in vivo
Conditions: BALB/c, mouse
ASSAY_METRIC: clearance (mL/min/kg)
Give just the number in mL/min/kg; leave the unit off.

Q: Requested field: clearance. Item: "CC(=O)c1sc(NC(=O)N[C@@H]2CN(C(C)=O)CC[C@H]2CN2CCC[C@@H](Cc3ccc(F)cc3)C2)nc1C"
A: 41.7

---

Test: in vitro
Conditions: human, liver microsomes
ASSAY_METRIC: CLint scaled
Number plus unit, in that order.

Q: Any idea what its CLint scaled is? The molecule is "CC(=O)c1sc(NC(=O)N[C@@H]2CN(C(C)=O)CC[C@H]2CN2CCC[C@@H](Cc3ccc(F)cc3)C2)nc1C"
A: 16 mL/min/kg

---

Assay: in vivo
Details: BALB/c, mouse
ASSAY_METRIC: half-life (h)
Quick note: give the figure in h, leave out the unit.

Q: For the compound shown here, "CC(=O)c1sc(NC(=O)N[C@@H]2CN(C(C)=O)CC[C@H]2CN2CCC[C@@H](Cc3ccc(F)cc3)C2)nc1C" , give the reported half-life.
A: 1.2

Origin of values: ChEMBL document CHEMBL1140623
